# RMFI (relative maximum fold induction) per entry
Tested target: wild-type Choristoneura fumiferana EcR (D, E and F domains) (Choristoneura fumiferana, UniProt O77240)
Format: cell-based
Cond: S; WT-CtEcR, 3T3 Cells; relative to GS-E ligand
Endpoint: RMFI (relative maximum fold induction)

{"columns": ["Compound", "Endpoint", "Recorded measurement"],
 "data": [
  ["CCC[C@H](N(NC(=O)c1cccs1)C(=O)c1cc(C)cc(C)c1)C(C)(C)C [Example 43]", "RMFI (relative maximum fold induction)", 0.07],
  ["CCC[C@H](N(NC(=O)c1cccc(OC)c1C)C(=O)c1cc(C)cc(C)c1)C(C)(C)C [Example 47]", "RMFI (relative maximum fold induction)", 0.49],
  ["CCC[C@H](N(NC(=O)c1ccc(C)cc1)C(=O)c1cc(C)cc(C)c1)C(C)(C)C [Example 38]", "RMFI (relative maximum fold induction)", 0.25],
  ["CCC[C@H](N(NC(=O)c1cc(C)oc1C)C(=O)c1cc(C)cc(C)c1)C(C)(C)C [Example 44]", "RMFI (relative maximum fold induction)", 0.32],
  ["CCC[C@H](N(NC(=O)OC(C)(C)C)C(=O)c1cc(C)cc(C)c1)C(C)(C)C [Example 48]", "RMFI (relative maximum fold induction)", 0.03]
]}
